Reference source for all entries: patent US11384113B2

Molecular target: human recombinant CblC pathogenic mutant Arg161Gly (Homo sapiens, UniProt Q9Y4U1, R161G)
Sequence (Q9Y4U1 1-282 R161G): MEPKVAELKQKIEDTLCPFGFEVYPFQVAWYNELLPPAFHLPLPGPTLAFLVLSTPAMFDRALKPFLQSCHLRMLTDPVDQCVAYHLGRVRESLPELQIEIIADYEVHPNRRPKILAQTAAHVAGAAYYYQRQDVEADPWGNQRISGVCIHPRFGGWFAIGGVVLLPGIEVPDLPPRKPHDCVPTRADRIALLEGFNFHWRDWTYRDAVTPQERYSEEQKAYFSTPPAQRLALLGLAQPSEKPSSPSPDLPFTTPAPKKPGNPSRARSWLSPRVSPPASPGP
Format: biochemical
Conditions: human, pH 7.6
Metric: Half-life of beta-axial ligand removal, Mutant Arg161Gly (min)
Answers are plain numbers, in min.

Below: 2 compounds and their reported Half-life of beta-axial ligand removal, Mutant Arg161Gly.
Any idea what Half-life of beta-axial ligand removal, Mutant Arg161Gly came out for C/C1=C2/[N-][C@H]([C@H](CC(N)=O)[C@@]2(C)CCC(=O)NC[C@H](C)OP(=O)([O-])O[C@H]2[C@@H](O)[C@@H](n3cnc4cc(C)c(C)cc43)O[C@@H]2CO)[C@]2(C)N=C(/C(C)=C3N=C(/C=C4N=C1[C@@H](CCC(N)=O)C\4(C)C)[C@@H](CCC(N)=O)[C@]\3(C)CC(N)=O)[C@@H](CCC(N)=O)[C@]2(C)CC(N)=O.[CH3-].[Co+3] [MeCbl, Methylcobalamin, reference compound] on human recombinant CblC pathogenic mutant Arg161Gly (Homo sapiens, UniProt Q9Y4U1, R161G)? 60

Any idea what Half-life of beta-axial ligand removal, Mutant Arg161Gly came out for CC1=C2N=C(C=C3N=C(C(C)=C4[N-]C(C(CC(N)=O)C4(C)CCC(=O)NCC(C)OP(=O)([O-])OC4C(CO)OC(n5cnc6cc(C)c(C)cc65)C4O)C4(C)N=C1C(CCC(N)=O)C4(C)CC(N)=O)C(CCC(N)=O)C3(C)C)C(CCC(N)=O)C2(C)CC(N)=O.CS[CH2][Co+2] (stereo not drawn) on human recombinant CblC pathogenic mutant Arg161Gly (Homo sapiens, UniProt Q9Y4U1, R161G)? 12

Please turn your attention to the following entry.
Any idea what Half-life of beta-axial ligand removal, Mutant Arg161Gly came out for CC1=C2N=C(C=C3N=C(C(C)=C4[N-]C(C(CC(N)=O)C4(C)CCC(=O)NCC(C)OP(=O)([O-])OC4C(CO)OC(n5cnc6cc(C)c(C)cc65)C4O)C4(C)N=C1C(CCC(N)=O)C4(C)CC(N)=O)C(CCC(N)=O)C3(C)C)C(CCC(N)=O)C2(C)CC(N)=O.CSC[CH2][Co+2] (stereo not drawn) on human recombinant CblC pathogenic mutant Arg161Gly (Homo sapiens, UniProt Q9Y4U1, R161G)? 11.5
